- System: PPARa:RXRa (NR concentration 270 nM, RXRa partner concentration 90 nM)
- procedure.details: PBM binding z-score (relative to random genomic background probes); higher = stronger binding; sequences stand for … in GC…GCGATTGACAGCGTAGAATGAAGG
endpoint.label: PBM binding z-score
// no unit, no text: just the number

Would you please look over these solved cases?
TAGCCTAGGTCATTGGGCCAGGATAGTACGCATC    3.6
CGAACGAGGGCATGACTTGATAGCAAATGCCGAT    1.26
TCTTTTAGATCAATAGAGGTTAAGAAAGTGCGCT    2.16
AGAACGAAGGCAATGAGTTGATAGCACGGGTGGC    -0.613
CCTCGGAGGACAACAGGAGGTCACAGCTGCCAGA    3.42

# input So what does the record say about PBM binding z-score for TCTAGCAGGCCAGTGGGTCACTCAAGAGGTACGG ?
# output 1.83

# input What measured PBM binding z-score goes with GCGACTGGGGCATCAGCAGGTTACCATGACTTAA ?
# output 0.903

# input Name the recorded PBM binding z-score for ACTATTAGTTGACTCAGGGCAACCGATACGACGC .
# output 0.023

Each recorded value in this set is attributed to the supplement of paper PMC6555819.
